// data source = ChEMBL document CHEMBL1133184

pIC50: −log10 of the molar value.
The reader will find pIC50 measurements below, all made with Acetylcholinesterase (Homo sapiens, UniProt P22303).
Sequence (P22303 whole entry): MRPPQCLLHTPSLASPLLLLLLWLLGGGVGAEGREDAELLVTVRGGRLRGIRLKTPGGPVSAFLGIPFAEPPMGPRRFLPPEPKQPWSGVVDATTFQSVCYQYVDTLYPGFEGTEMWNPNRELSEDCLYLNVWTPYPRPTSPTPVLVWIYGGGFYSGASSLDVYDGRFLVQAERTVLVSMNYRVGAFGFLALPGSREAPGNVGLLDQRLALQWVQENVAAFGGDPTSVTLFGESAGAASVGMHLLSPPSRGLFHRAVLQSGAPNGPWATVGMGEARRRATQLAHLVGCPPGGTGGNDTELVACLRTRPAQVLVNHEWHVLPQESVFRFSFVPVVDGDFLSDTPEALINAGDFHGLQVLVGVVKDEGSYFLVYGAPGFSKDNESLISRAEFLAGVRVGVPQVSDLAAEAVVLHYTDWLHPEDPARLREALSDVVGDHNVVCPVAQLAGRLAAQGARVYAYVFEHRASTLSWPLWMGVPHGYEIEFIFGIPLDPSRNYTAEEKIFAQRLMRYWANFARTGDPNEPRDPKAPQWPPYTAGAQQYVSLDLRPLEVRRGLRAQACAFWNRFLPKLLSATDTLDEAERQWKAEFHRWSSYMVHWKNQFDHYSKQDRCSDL
READOUT KIND: pIC50

MOLECULE: Nc1ccc2nc3c(c(N)c2c1)CCCC3
NUMERIC READOUT: 5.42
//
MOLECULE: COc1cc2nc3c(c(N)c2cc1OC)CCCC3
NUMERIC READOUT: 5.29
//
MOLECULE: Nc1c2c(nc3ccc(Cl)cc13)CCCC2
NUMERIC READOUT: 6.26
//
MOLECULE: Nc1c2c(nc3cc(F)ccc13)CCCC2
NUMERIC READOUT: 7.06
//
MOLECULE: Nc1c2c(nc3cc(Cl)c(Cl)cc13)CCCC2
NUMERIC READOUT: 6.32
//
MOLECULE: Cc1ccc2c(N)c3c(nc2c1)CCCC3
NUMERIC READOUT: 7.00
//
MOLECULE: CCCCCCCNc1c2c(nc3cc(OC)ccc13)CCCC2
NUMERIC READOUT: 6.33
//
MOLECULE: Nc1c2c(nc3ccccc13)-c1ccc(F)cc1C2
NUMERIC READOUT: 6.36
//
MOLECULE: CCCCCCCNc1c2c(nc3ccc(C)cc13)CCCC2
NUMERIC READOUT: 6.41
//
MOLECULE: Nc1c2c(nc3cc(Cl)ccc13)-c1ccccc1C2
NUMERIC READOUT: 5.18
//
MOLECULE: Cc1ccc2nc3c(c(NCc4ccccc4)c2c1)CCCC3
NUMERIC READOUT: 5.43
//
MOLECULE: Cc1ccc2nc3c(c(N)c2c1)CCCC3
NUMERIC READOUT: 5.09
//
MOLECULE: Cc1ccc2c(NCc3ccccc3)c3c(nc2c1)CCCC3
NUMERIC READOUT: 6.13
//
MOLECULE: CCCCCCCNc1c2c(nc3cc(F)ccc13)CCCC2
NUMERIC READOUT: 7.34
//
MOLECULE: O=[N+]([O-])c1ccc2nc3c(c(NCc4ccccc4)c2c1)CCCC3
NUMERIC READOUT: 5.80
//
MOLECULE: O=[N+]([O-])c1ccc2c(NCc3ccccc3)c3c(nc2c1)CCCC3
NUMERIC READOUT: 5.32
//
MOLECULE: Clc1ccc2c(NCc3ccccc3)c3c(nc2c1)CCCC3
NUMERIC READOUT: 6.77
//
MOLECULE: COc1ccc2c(N)c3c(nc2c1)CCCC3
NUMERIC READOUT: 6.45
//
MOLECULE: CCCCCCCNc1c2c(nc3cc(C)ccc13)CCCC2
NUMERIC READOUT: 6.89
//
MOLECULE: CCCCCCCNc1c2c(nc3cc([N+](=O)[O-])ccc13)CCCC2
NUMERIC READOUT: 6.53
//
MOLECULE: CCCCCCCNc1c2c(nc3cc(Cl)ccc13)CCCC2
NUMERIC READOUT: 7.88
//
MOLECULE: COc1cccc2c1Cc1c-2nc2ccccc2c1N
NUMERIC READOUT: 5.78
//
MOLECULE: Nc1c2c(nc3ccc([N+](=O)[O-])cc13)CCCC2
NUMERIC READOUT: 5.52
